Below, each entry is listed alongside its reported melting point.

compound: Cc1ccc2occ(C=O)c(=O)c2c1 [Compound 2]
melting point: 173 to 175 °C
--
compound: O=c1c(/C=N\Nc2nc(-c3ccc(Cl)cc3Cl)cs2)coc2ccccc12 [Compound 10]
melting point: 243 to 245 °C
--
compound: NC(=S)N/N=C\c1coc2ccccc2c1=O [Compound 3]
melting point: 240 to 242 °C
--
compound: Cc1ccc2occ(/C=N\Nc3nc(-c4cccc([N+](=O)[O-])c4)cs3)c(=O)c2c1 [Compound 25]
melting point: 240 to 242 °C
--
compound: O=c1c(/C=N\Nc2nc(-c3ccccc3)cs2)coc2ccccc12 [Compound 5]
melting point: 223 to 225 °C
--
compound: Cc1ccc2occ(/C=N\Nc3nc(-c4ccccc4O)cs3)c(=O)c2c1 [Compound 18]
melting point: 230 to 232 °C
